Hey, just so you know, these numbers are from patent US11964949B2.

Tested on: Mycobacterium tuberculosis H37Rv
Test: In vitro assay for antimicrobial susceptibility (microplate Alamar blue, MIC)
Format: cell-based
Details: Mycobacterium tuberculosis; M. tuberculosis H37Rv, 7H9 broth, Alamar blue; read-out: MIC (μg/mL) against H37Rv
Measurement type: MIC (µg/mL)
Give your result in µg/mL as a bare value.

These solved cases illustrate the format of a correct answer.
Compound	System tested	Recorded number
CCCC(=O)NC[C@H]1CN(c2ccc(N3CCCS(=O)(=O)CC3)c(F)c2)C(=O)O1 [OBD-007]	Mycobacterium tuberculosis H37Rv	0.46
NC[C@H]1CN(c2ccc(N3CC4CCC(C3)O4)c(F)c2)C(=O)O1 [OBD-113]	Mycobacterium tuberculosis H37Rv	0.39
CS(=O)(=O)NC[C@H]1CN(c2ccc(N3CC4(C3)C[S+]([O-])C4)c(F)c2)C(=O)O1 [OTB-260-2B]	Mycobacterium tuberculosis H37Rv	0.49

Moving on to the next compound.
### Prompt Request - read-out MIC | tested on Mycobacterium tuberculosis H37Rv | compound CCCC(=O)NC[C@H]1CN(c2ccc(N3CCC[S+]([O-])CC3)c(F)c2)C(=O)O1 (stereo partly shown) [OBD-006]
### Response 0.49

* * *

System: Mycobacterium tuberculosis H37Rv
Assay: In vitro assay for antimicrobial susceptibility (microplate Alamar blue, MIC)
Type: cell-based
Settings: Mycobacterium tuberculosis; M. tuberculosis H37Rv, 7H9 broth, Alamar blue; read-out: MIC (μg/mL) against H37Rv
Entries get a class label from measured MIC. See ranges: 1 = under 0.5 µg/mL, 2 = from 0.5 µg/mL up to 0.9 µg/mL, 3 = 0.9 µg/mL and over

See these solved cases before continuing.
Molecule	Class label
CC(=O)NC[C@H]1CN(c2cc(F)c(N3CC4(C3)C[S+]([O-])C4)c(F)c2)C(=O)O1	1
CCCC(=O)NC[C@H]1CN(c2ccc(N3CCCSCCC3)c(F)c2)C(=O)O1	1
O=C(NC[C@H]1CN(c2ccc(N3CCCSCC3)c(F)c2)C(=O)O1)C1CC1	1

### Prompt // bin(item) where item = COC(=O)NC[C@H]1CN(c2cc(F)c(N3CC4(C3)C[S+]([O-])C4)c(F)c2)C(=O)O1
### Response 2

### Prompt Into which category would you place CCCC(=O)OC[C@H]1CN(c2ccc(N3CCC[S+]([O-])CC3)c(F)c2)C(=O)O1 (stereo partly shown) ?
### Response 2

### Prompt Which band does O=C1O[C@@H](Cn2nccn2)CN1c1ccc(N2CC3(C2)C[S+]([O-])C3)c(F)c1 fall in?
### Response 3

### Prompt For O=C1O[C@@H](CNc2ccon2)CN1c1cc(F)c(N2CC3(COC3)C2)c(F)c1 , which MIC bin applies?
### Response 2

### Prompt # bin label for CCCC(=O)NC[C@H]1CN(c2cc(F)c(N3CC4CCC(C3)O4)c(F)c2)C(=O)O1
### Response 2

### Prompt GET /class?item= CC(C)(C)C(=O)NC[C@H]1CN(c2ccc(N3CCCSCC3)c(F)c2)C(=O)O1
### Response 3

### Prompt Class label required: O=C1O[C@@H](Cn2nccn2)CN1c1ccc(N2CCCSCC2)c(F)c1
### Response 3

### Prompt Class for O=C1O[C@@H](Cn2ccnn2)CN1c1ccc(N2CCC[S+]([O-])CC2)c(F)c1 (stereo partly shown) ?
### Response 1

### Prompt Note: place this molecule into its band. Item: O=C1O[C@@H](CO)CN1c1ccc(N2CC3CCC(C2)O3)c(F)c1
### Response 3

### Prompt Determine which band this molecule sits in: CCCC(=O)NC[C@H]1CN(c2ccc(N3CCC[S+]([O-])CCC3)c(F)c2)C(=O)O1
### Response 3

### Prompt Band of O=C(NC[C@H]1CN(c2ccc(N3CCCSCCC3)c(F)c2)C(=O)O1)c1ccco1 ?
### Response 2

### Prompt Please report the category associated with NC[C@H]1CN(c2ccc(N3CC4(COC4)C3)c(F)c2)C(=O)O1 , nothing else.
### Response 1

### Prompt Which class is correct for the following molecule? O=C1O[C@@H](Cn2cncn2)CN1c1ccc(N2CCC[S+]([O-])CC2)c(F)c1 (stereo partly shown)
### Response 3

* * *

Tested on: Mycobacterium tuberculosis H37Rv
Assay: In vitro assay for antimicrobial susceptibility (microplate Alamar blue, MIC)
Assay type: cell-based
Conditions: Mycobacterium tuberculosis; M. tuberculosis H37Rv, 7H9 broth, Alamar blue; read-out: MIC (μg/mL) against H37Rv
Measurement type: MIC (µg/mL)
I only need the number, in µg/mL, no unit after it.

Field: example entries. Status: answers known.
O=C(NC[C@H]1CN(c2cc(F)c(N3CCCSCC3)c(F)c2)C(=O)O1)C1CC1 0.342
COC(=O)NC[C@H]1CN(c2ccc(N3CC4(C3)C[S+]([O-])C4)c(F)c2)C(=O)O1 4
O=C1O[C@@H](Cn2ccnn2)CN1c1cc(F)c(N2CC3(C2)C[S+]([O-])C3)c(F)c1 1

### Prompt Tell me the measured MIC of O=C1O[C@@H](Cn2nccn2)CN1c1ccc(N2CCCSCCC2)c(F)c1 , please.
### Response 2

### Prompt What does the data say about its MIC? Entry: O=C(NC[C@H]1CN(c2ccc(N3CC4(C3)C[S+]([O-])C4)c(F)c2)C(=O)O1)C1CC1
### Response 1.9

* * *

System: Mycobacterium tuberculosis H37Rv
Assay: In vitro assay for antimicrobial susceptibility (microplate Alamar blue, MIC)
Assay type: cell-based
Details: Mycobacterium tuberculosis; M. tuberculosis H37Rv, 7H9 broth, Alamar blue; read-out: MIC (μg/mL) against H37Rv
Measurement type: MIC

Here's what some known entries look like.
Compound	MIC
COC(=O)NC[C@H]1CN(c2cc(F)c(N3CC4(COC4)C3)c(F)c2)C(=O)O1 [OTB-231]	0.24 to 0.7 µg/mL
O=C(NC[C@H]1CN(c2ccc(N3CC4(CSC4)C3)c(F)c2)C(=O)O1)C1CC1 [OTB-249]	0.06 to 0.15 µg/mL

Moving on to the next compound.
### Prompt Under Mycobacterium tuberculosis H37Rv: MIC value of O=C1O[C@@H](Cn2ccnn2)CN1c1ccc(N2CC3(C2)C[S+]([O-])C3)c(F)c1 [OTB-247] ?
### Response 1.2 to 1.4 µg/mL

* * *

Tested on: Mycobacterium tuberculosis H37Rv
Assay: In vitro assay for antimicrobial susceptibility (microplate Alamar blue, MIC)
Type: cell-based
Conditions: Mycobacterium tuberculosis; M. tuberculosis H37Rv, 7H9 broth, Alamar blue; read-out: MIC (μg/mL) against H37Rv
A collection of compounds and their measured MIC

O=C(NC[C@H]1CN(c2ccc(N3CC4(COC4)C3)c(F)c2)C(=O)O1)C1CC1 2 to 4 µg/mL
COC(=O)NC[C@H]1CN(c2cc(F)c(N3CC4(CSC4)C3)c(F)c2)C(=O)O1 0.02 to 0.06 µg/mL
COC(=O)NC[C@H]1CN(c2ccc(N3CC4(COC4)C3)c(F)c2)C(=O)O1 0.8 to 2.6 µg/mL

### Prompt Can you share its MIC? I mean this compound: CC(=O)NC[C@H]1CN(c2ccc(N3CC4(C3)C[S+]([O-])C4)c(F)c2)C(=O)O1
### Response 0.5 µg/mL

### Prompt Look at this compound and give its reported MIC. O=C(NC[C@H]1CN(c2cc(F)c(N3CC4(C3)C[S+]([O-])C4)c(F)c2)C(=O)O1)C1CCC1
### Response 0.9 µg/mL

### Prompt Would you mind telling me what MIC value was observed for NC[C@H]1CN(c2cc(F)c(N3CC4(COC4)C3)c(F)c2)C(=O)O1 ?
### Response 0.1 to 0.25 µg/mL
